MEASURED_TARGET: Cathepsin K (Homo sapiens, UniProt P43235)
Sequence (P43235 115-329): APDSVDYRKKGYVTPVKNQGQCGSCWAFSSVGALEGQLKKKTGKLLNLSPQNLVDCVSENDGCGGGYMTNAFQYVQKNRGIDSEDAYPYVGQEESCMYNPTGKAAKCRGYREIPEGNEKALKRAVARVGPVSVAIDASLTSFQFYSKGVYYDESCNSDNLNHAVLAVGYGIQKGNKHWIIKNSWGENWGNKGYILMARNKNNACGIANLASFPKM
EXPERIMENTAL_DETAILS: Cathepsin K inhibition assay (fluorogenic peptide substrate); selectivity ratio vs cathepsin S
Type: biochemical
APPLIED_CONDITIONS: ratio of cathepsin K inhibition constant to cathepsin S inhibition constant; Table II
EXPERIMENTAL_ENDPOINT: Selectivity for Cat. S over Cat. K

Here's what some known entries look like.
[[record]]
compound = "COc1ccc(NCCNC(=O)C(NC(=O)c2cccc(C)c2)c2ccc(Cl)cc2Cl)cc1 (centres unmarked)"
experimental_endpoint = "Selectivity for Cat. S over Cat. K"
reported_value = "+++ (+++, >1000)"

[[record]]
compound = "COc1ccc(NCCNC(=O)[C@H](Cc2ccc(-c3ccc(OC)nc3)cc2)NC(=O)c2cccc(C)c2)cc1"
experimental_endpoint = "Selectivity for Cat. S over Cat. K"
reported_value = "+++ (+++, >1000)"

[[record]]
compound = "COc1ccc(NCCNC(=O)[C@H](CC2CCCCC2)NC(=O)c2ccc(F)c(F)c2)cc1"
experimental_endpoint = "Selectivity for Cat. S over Cat. K"
reported_value = "+++ (+++, >1000)"

[[record]]
compound = "COc1ccc(NCCNC(=O)[C@H](CC2CCCCC2)NC(=O)c2c[nH]c3ccccc23)cc1"
experimental_endpoint = "Selectivity for Cat. S over Cat. K"
reported_value = "++ (++, >100)"

[[record]]
compound = "COc1ccc(NCCNC(=O)[C@H](CC2CCCC2)NC(=O)c2ccc(-c3cccc(C(F)(F)F)c3)o2)cc1"
experimental_endpoint = "Selectivity for Cat. S over Cat. K"
reported_value = "++ (++, >100)"


The compound identified as O=C(NCCNc1ccc(F)cc1)[C@H](CC1CCCCC1)NC(=O)C1(c2ccccc2)CC1 registered its Selectivity for Cat. S over Cat. K at ++ (++, >100)

The compound identified as CC(C(=O)NC(CC1CCCCC1)C(=O)NCCNc1ccc(F)cc1)c1ccc(-c2ccccc2)c(F)c1 (centres unmarked) registered its Selectivity for Cat. S over Cat. K at ++ (++, >100)

---

MEASURED_TARGET: Cathepsin S (Homo sapiens, UniProt P25774)
Sequence (P25774 115-331, species assumed): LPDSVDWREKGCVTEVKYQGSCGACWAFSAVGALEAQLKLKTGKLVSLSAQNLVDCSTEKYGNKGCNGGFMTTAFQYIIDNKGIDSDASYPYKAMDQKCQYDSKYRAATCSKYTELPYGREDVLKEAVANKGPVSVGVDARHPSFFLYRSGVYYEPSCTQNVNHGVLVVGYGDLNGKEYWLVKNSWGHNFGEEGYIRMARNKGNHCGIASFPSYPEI
EXPERIMENTAL_DETAILS: Cathepsin S inhibition assay (fluorogenic peptide substrate)
Format: biochemical
APPLIED_CONDITIONS: Table II, compounds of Formula I; read-out: Ki Cat. S
EXPERIMENTAL_ENDPOINT: Ki

[[record]]
molecule = "COc1ccc(NCCNC(=O)[C@H](CC2CCCCC2)NC(=O)c2nc(C)oc2C(F)(F)F)cc1"
reported_value = "< 100 nM"

[[record]]
molecule = "COc1ccc(NCCNC(=O)C(NC(=O)c2cccc(C)c2)C(C)c2ccccc2)cc1 (stereo not drawn) [Compound 268]"
reported_value = "< 1000 nM"

[[record]]
molecule = "COc1ccc(NCCNC(=O)[C@H](CC2CCCCC2)NC(=O)c2ccc(OC)cc2)cc1"
reported_value = "< 100 nM"


The molecule identified as CC[C@@H](C(=O)N[C@@H](CCC1CCCCC1)C(=O)NCCNc1ccc(OC)cc1)c1ccccc1 registered its Ki at < 100 nM

The molecule identified as COc1ccc(NCCNC(=O)[C@H](CC2CCCCC2)NC(=O)c2cc(C)c(OCc3ccccc3)c(C)c2)cc1 registered its Ki at < 100 nM

The molecule identified as Cc1oc(S(=O)(=O)N2CCOCC2)cc1C(=O)N[C@@H](CC1CCCCC1)C(=O)NCCNc1ccc(OC(F)(F)F)cc1 registered its Ki at < 100 nM

The molecule identified as CC(=O)N1CCN(c2ccc(OCC(=O)N[C@@H](CC3CCCCC3)C(=O)NCCNc3ccc(OC(F)(F)F)cc3)cc2)CC1 registered its Ki at < 1000 nM

The molecule identified as COc1ccc(NCCNC(=O)[C@H](Cc2ccccc2)NC(=O)Nc2ccc3c(c2)OCO3)cc1 registered its Ki at < 10000 nM

The molecule identified as O=C(N[C@@H](CC1CCCCC1)C(=O)NCCNc1ccc(OC(F)(F)F)cc1)C1CC(=O)N(Cc2cccs2)C1 (stereo partly drawn) registered its Ki at < 100 nM

The molecule identified as O=C(O)c1ccc(NCCNC(=O)[C@H](CC2CCCCC2)NC(=O)c2ccc(-c3cccc(C(F)(F)F)c3)o2)cc1 registered its Ki at < 100 nM

The molecule identified as O=C(N[C@@H](CC1CCCCC1)C(=O)NCCNc1ccc(OC(F)(F)F)cc1)c1ccc(-c2cnco2)cc1 registered its Ki at < 100 nM

The molecule identified as CC(=O)N1CCC(C(=O)N[C@@H](CC2CCCCC2)C(=O)NCCNc2ccc(F)cc2)CC1 registered its Ki at < 10000 nM

The molecule identified as COc1ccc(NCCNC(=O)[C@H](CC2CCCCC2)NC(=O)c2cnn(-c3ccc(Cl)cc3)c2C(F)(F)F)cc1 registered its Ki at < 100 nM

The molecule identified as CC[C@H](C(=O)N[C@@H](CC1CCCCC1)C(=O)NCCNc1ccc(OC)cc1)c1ccccc1 registered its Ki at < 100 nM

The molecule identified as CC[C@@H](C(=O)N[C@@H](CC1CCCCC1)C(=O)NCCNc1ccc(OC(F)(F)F)cc1)c1ccccc1 registered its Ki at < 100 nM

The molecule identified as CS(=O)(=O)c1ccc(C(=O)N[C@@H](CC2CCCCC2)C(=O)NCCNc2ccc(F)cc2)s1 registered its Ki at < 100 nM

The molecule identified as COc1ccc(NCCNC(=O)[C@H](CC2CCCCC2)NC(=O)c2ccc(F)c(C(F)(F)F)c2)cc1 registered its Ki at < 100 nM

The molecule identified as COc1ccc(NCCNC(=O)[C@H](Cc2ccc(-c3ccsc3)cc2)NC(=O)c2cccc(C)c2)cc1 registered its Ki at < 100 nM
